Assay: Clearance of 99m-Tc-IMP-192 in BALB/c mice
Type: in vivo
Conditions: BALB/c, mouse, total radioactivity; Blood, 24 h
Where a SMILES comes first, the peptide text is derived from it. Side-chain parts run from the residue outwards. The star is where a group is joined. DTPA = O=C(O)CN(CCN(CC(=O)O)CC(=O)O)CCN(CC(=O)O)CC(=O)*; X1 = NC(=S)NN=CC(=O)*
assayMetric: tissue uptake at 24 h (%ID/g)
Form entry: value (%ID/g) — number only.

Ask: Using the record for CC(=O)N[C@@H](CCCCNC(=O)CN(CCN(CCN(CC(=O)O)CC(=O)O)CC(=O)O)CC(=O)O)C(=O)N[C@@H](Cc1ccc(O)cc1)C(=O)N[C@@H](CCCCNC(=O)CN(CCN(CCN(CC(=O)O)CC(=O)O)CC(=O)O)CC(=O)O)C(=O)N[C@@H](CCCCNC(=O)[C@H](CS)NC(=O)C=NNC(N)=S)C(N)=O [IMP 192] (Ac-K(DTPA)YK(DTPA)K([Cys-X1])-NH2) , report its tissue uptake at 24 h.
Result: 0.05

* * *

Test: Pretargeting: 125-I-hMN-14 × 734 bsAb, 24 h later 99m-Tc-IMP-192, biodistribution
Assay type: in vivo, Nude mice
Conditions: female, nude (Taconic NCRNU), mouse, total radioactivity; Blood, 3 h post peptide
Where a SMILES comes first, the peptide text is derived from it. Side-chain parts run from the residue outwards. The star is where a group is joined. DTPA = O=C(O)CN(CCN(CC(=O)O)CC(=O)O)CCN(CC(=O)O)CC(=O)*; X1 = NC(=S)NN=CC(=O)*
assayMetric: tissue uptake at 3 h (%ID/g)
Form entry: value (%ID/g) — number only.

Ask: Using the record for CC(=O)N[C@@H](CCCCNC(=O)CN(CCN(CCN(CC(=O)O)CC(=O)O)CC(=O)O)CC(=O)O)C(=O)N[C@@H](Cc1ccc(O)cc1)C(=O)N[C@@H](CCCCNC(=O)CN(CCN(CCN(CC(=O)O)CC(=O)O)CC(=O)O)CC(=O)O)C(=O)N[C@@H](CCCCNC(=O)[C@H](CS)NC(=O)C=NNC(N)=S)C(N)=O [IMP 192] (Ac-K(DTPA)YK(DTPA)K([Cys-X1])-NH2) , report its tissue uptake at 3 h.
Result: 1.7

* * *

Assay: Clearance of 99m-Tc-IMP-192 in BALB/c mice
Assay type: in vivo
Conditions: BALB/c, mouse, large intestine, total radioactivity; Lg.Int., 2 h
Where a SMILES comes first, the peptide text is derived from it. Side-chain parts run from the residue outwards. The star is where a group is joined. DTPA = O=C(O)CN(CCN(CC(=O)O)CC(=O)O)CCN(CC(=O)O)CC(=O)*; X1 = NC(=S)NN=CC(=O)*
assayMetric: tissue uptake at 2 h
Returns: string containing the numeric result and its unit.

Ask: Using the record for CC(=O)N[C@@H](CCCCNC(=O)CN(CCN(CCN(CC(=O)O)CC(=O)O)CC(=O)O)CC(=O)O)C(=O)N[C@@H](Cc1ccc(O)cc1)C(=O)N[C@@H](CCCCNC(=O)CN(CCN(CCN(CC(=O)O)CC(=O)O)CC(=O)O)CC(=O)O)C(=O)N[C@@H](CCCCNC(=O)[C@H](CS)NC(=O)C=NNC(N)=S)C(N)=O [IMP 192] (Ac-K(DTPA)YK(DTPA)K([Cys-X1])-NH2) , report its tissue uptake at 2 h.
Result: 1.53 %ID/g

* * *

Assay: Clearance of 99m-Tc-IMP-192 in BALB/c mice
Format: in vivo
Settings: BALB/c, mouse; Kidney, 4 h
Where a SMILES comes first, the peptide text is derived from it. Side-chain parts run from the residue outwards. The star is where a group is joined. DTPA = O=C(O)CN(CCN(CC(=O)O)CC(=O)O)CCN(CC(=O)O)CC(=O)*; X1 = NC(=S)NN=CC(=O)*
assayMetric: tissue uptake at 4 h (%ID/g)
Form entry: value (%ID/g) — number only.

Ask: Using the record for CC(=O)N[C@@H](CCCCNC(=O)CN(CCN(CCN(CC(=O)O)CC(=O)O)CC(=O)O)CC(=O)O)C(=O)N[C@@H](Cc1ccc(O)cc1)C(=O)N[C@@H](CCCCNC(=O)CN(CCN(CCN(CC(=O)O)CC(=O)O)CC(=O)O)CC(=O)O)C(=O)N[C@@H](CCCCNC(=O)[C@H](CS)NC(=O)C=NNC(N)=S)C(N)=O [IMP 192] (Ac-K(DTPA)YK(DTPA)K([Cys-X1])-NH2) , report its tissue uptake at 4 h.
Result: 3.21

* * *

Experiment: Clearance of 99m-Tc-IMP-192 in BALB/c mice
Format: in vivo
Settings: BALB/c, mouse; Kidney, 2 h
Where a SMILES comes first, the peptide text is derived from it. Side-chain parts run from the residue outwards. The star is where a group is joined. DTPA = O=C(O)CN(CCN(CC(=O)O)CC(=O)O)CCN(CC(=O)O)CC(=O)*; X1 = NC(=S)NN=CC(=O)*
assayMetric: tissue uptake at 2 h
Returns: string containing the numeric result and its unit.

Ask: Using the record for CC(=O)N[C@@H](CCCCNC(=O)CN(CCN(CCN(CC(=O)O)CC(=O)O)CC(=O)O)CC(=O)O)C(=O)N[C@@H](Cc1ccc(O)cc1)C(=O)N[C@@H](CCCCNC(=O)CN(CCN(CCN(CC(=O)O)CC(=O)O)CC(=O)O)CC(=O)O)C(=O)N[C@@H](CCCCNC(=O)[C@H](CS)NC(=O)C=NNC(N)=S)C(N)=O [IMP 192] (Ac-K(DTPA)YK(DTPA)K([Cys-X1])-NH2) , report its tissue uptake at 2 h.
Result: 4.05 %ID/g

* * *

Assay: Clearance of 99m-Tc-IMP-192 in BALB/c mice
Assay type: in vivo
Details: BALB/c, mouse; Spleen, 2 h
Where a SMILES comes first, the peptide text is derived from it. Side-chain parts run from the residue outwards. The star is where a group is joined. DTPA = O=C(O)CN(CCN(CC(=O)O)CC(=O)O)CCN(CC(=O)O)CC(=O)*; X1 = NC(=S)NN=CC(=O)*
assayMetric: tissue uptake at 2 h (%ID/g)
Form entry: value (%ID/g) — number only.

Ask: Using the record for CC(=O)N[C@@H](CCCCNC(=O)CN(CCN(CCN(CC(=O)O)CC(=O)O)CC(=O)O)CC(=O)O)C(=O)N[C@@H](Cc1ccc(O)cc1)C(=O)N[C@@H](CCCCNC(=O)CN(CCN(CCN(CC(=O)O)CC(=O)O)CC(=O)O)CC(=O)O)C(=O)N[C@@H](CCCCNC(=O)[C@H](CS)NC(=O)C=NNC(N)=S)C(N)=O [IMP 192] (Ac-K(DTPA)YK(DTPA)K([Cys-X1])-NH2) , report its tissue uptake at 2 h.
Result: 0.09

* * *

Assay: Comparison of ^177Lu-IMP-241 and ^111In-IMP-241 pretargeting using hMN-14 × m679 F(ab′)2 bsMAb (24 h bsMAb clearance)
Format: in vivo, nude mice
Conditions: female, NCr nude, mouse, lungs, iv, total radioactivity, Lungs, 24 hour after peptide; read-out: Percent Injected Dose Per Gram
Method: Female NCr nude mice Charles River Laboratories, Inc., Fredrick Md. or Taconic, Germantown, N.Y.) approximately 6 weeks of age were implanted subcutaneously with 0.2 ml of this suspension. […] Tissues were removed, weighed and counted by gamma scintillation using appropriate windows for each radionuclide along with standards prepared from the injected materials. […]
*1 amine or outer side, *2 acyl side, *3 side chain or, on linkers, in order; H or OH if unused. Where a SMILES comes first, the peptide text is derived from it. Side-chain parts run from the residue outwards. [ ]: non-standard residue; d: D form. The star is where a group is joined. DOTA = O=C(O)CN1CCN(CC(=O)O)CCN(CC(=O)*)CCN(CC(=O)O)CC1; NH(2-(imidazol-4-yl)ethyl) = c1ncc(CCN*)[nH]1; Suc = O=C(CCC(=O)[*:2])[*:1]
assayMetric: tissue uptake at 24 h (%ID/g)
Form entry: value (%ID/g) — number only.

Ask: Using the record for NC(=O)[C@H](CCCCNC(=O)CNC(=O)CCC(=O)NCCc1cnc[nH]1)NC(=O)[C@@H](Cc1ccc(O)cc1)NC(=O)[C@H](CCCCNC(=O)CNC(=O)CCC(=O)NCCc1cnc[nH]1)NC(=O)[C@H](Cc1ccccc1)NC(=O)CN1CCN(CC(=O)O)CCN(CC(=O)O)CCN(CC(=O)O)CC1 [^177Lu-IMP-241, metal not drawn] ({DOTA}-FK([Gly-Suc-NH(2-(imidazol-4-yl)ethyl)])[dY]K([Gly-Suc-NH(2-(imidazol-4-yl)ethyl)])-NH2) , report its tissue uptake at 24 h.
Result: 0.17

* * *

Experiment: Clearance of 99m-Tc-IMP-192 in BALB/c mice
Assay type: in vivo
Conditions: BALB/c, mouse; Lungs, 2 h
Where a SMILES comes first, the peptide text is derived from it. Side-chain parts run from the residue outwards. The star is where a group is joined. DTPA = O=C(O)CN(CCN(CC(=O)O)CC(=O)O)CCN(CC(=O)O)CC(=O)*; X1 = NC(=S)NN=CC(=O)*
assayMetric: tissue uptake at 2 h (%ID/g)
Form entry: value (%ID/g) — number only.

Ask: Using the record for CC(=O)N[C@@H](CCCCNC(=O)CN(CCN(CCN(CC(=O)O)CC(=O)O)CC(=O)O)CC(=O)O)C(=O)N[C@@H](Cc1ccc(O)cc1)C(=O)N[C@@H](CCCCNC(=O)CN(CCN(CCN(CC(=O)O)CC(=O)O)CC(=O)O)CC(=O)O)C(=O)N[C@@H](CCCCNC(=O)[C@H](CS)NC(=O)C=NNC(N)=S)C(N)=O [IMP 192] (Ac-K(DTPA)YK(DTPA)K([Cys-X1])-NH2) , report its tissue uptake at 2 h.
Result: 0.29
